Assay: Toxicity on mice (LD50)
Settings: mouse, in vivo
Source text: Toxicity values and activities of the above compounds (1) were investigated by animal tests in accordance with conventional methods as described, for example, in the above mentioned publications, and compared with the corresponding data of clofibrate, the well known cholesterol-lowering agent: […]
measured metric: LD50 (mg/kg)

INSERT INTO assay_data (molecule, recorded_number) VALUES
  ('CCOC(=O)C(C)(C)Oc1ccc(Cl)cc1 [Clofibrate, reference compound]', 2180);

###

test: in vivo; conditions: mouse
measured metric: LD50

INSERT INTO assay_data (compound, result) VALUES
  ('O=C(OCCOc1ccc(Cc2ccc(Cl)cc2)cc1)c1cccnc1', '> 3000 mg/kg'),
  ('CCC(C)(CO)Oc1ccc(Cc2ccc(Cl)cc2)cc1 (stereo not drawn)', '2960 mg/kg'),
  ('CCC(C)(COC(=O)c1cccnc1)Oc1ccc(Cc2ccc(Cl)cc2)cc1 (stereo not drawn)', '> 3000 mg/kg'),
  ('OCC(Oc1ccc(Cc2ccc(Cl)cc2)cc1)c1ccccc1 (stereo not drawn)', '> 3000 mg/kg'),
  ('CC(=O)Oc1ccccc1C(=O)OCCOc1ccc(Cc2ccc(Cl)cc2)cc1', '> 3000 mg/kg'),
  ('OCCOc1ccc(Cc2ccc(Cl)cc2)cc1 [Example 1, 2-[4-(4''-chlorobenzyl)-phenoxy]-ethanol]', '3000 mg/kg');

Each recorded value in this set is attributed to patent US4275068A.
